- TEST: xn = mol fraction of the nth substance listed, in the solute-free solvent
- CONDITION: 303.15 K; x2 = 0.08908
ENDPOINT: solubility (g/100 g solution)

>>> result("CC(C)OC(=O)C(C)NP(=O)(OCC1OC(n2ccc(=O)[nH]c2=O)C(C)(F)C1O)Oc1ccccc1 (centres undefined) + CCO + O")
5.7

P. Nc1cccc(S(=O)(=O)c2cccc(N)c2)c1 + CCO + O
Q. COc1cc2c(cc1OC)-c1cc3ccc(OC)c(OC)c3c[n+]1CC2.[Cl-] + CCO + O
R. Cc1[nH]c(=O)c(C#N)cc1-c1ccncc1 + CCO + O
Lookup: Number of molecules to sort: 3. Sort criterion: solubility (g/100 g solution), ascending. Hello, could you send the labels back in the order asked? Thank you.
Found: R, P, Q
(R: 0.00194, P: 0.383, Q: 2.94)

Origin of the recorded values: the CheMixHub drug solubility set
